tested on: HT29 colon; test: NCI tumour cell line growth inhibition, 48 h
readoutKind: GI50

Use these answered entries as a reference point.
1. COC(=O)C1=CN(CC2=CC(=O)C(C)=CC2=O)C=C(C(=O)OC)C1c1cc(OC)ccc1OC :: 4.71 µM
2. C=CC(=O)N1C[C@H](COc2nc(Nc3cnn(C)c3)nc3[nH]cc(Cl)c23)[C@@H](OC)C1 :: 5.24 µM
3. O=c1cc(NCC(O)CN2CCOCC2)n(Cc2ccccc2)c(=O)n1Cc1ccccc1 (stereo not drawn) :: 18.8 µM
4. CC(=N\O)/C(C)=N/O.CC(=N\O)/C(C)=N/O.CC(=N\O)/C(C)=N/O.CC(=N\O)/C(C)=N/O.[CH3-].[CH3-].[Co].[Co] :: 23 µM
5. COc1ccc2nc3ccccc3c(NCc3ccc(Cl)cc3)c2c1 :: 2.02 µM

Determine from records and report GI50 for Cc1cc(C2CC(O)C(CO)O2)c(Cl)cc1Cl (stereo not drawn) > 100 µM

Determine from records and report GI50 for O=Cc1cn(Cc2ccc(Cl)cc2)c2ccccc12 24.4 µM

Determine from records and report GI50 for C[n+]1c2ccccc2c(Nc2ccc(N3CCCCC3)cc2)c2[nH]c3ccccc3c21 0.191 µM

Determine from records and report GI50 for C[CH2][Pb]([CH2]C)([CH2]C)[O]C(=O)COc1ccccc1 1.74 µM

Determine from records and report GI50 for COc1ccc(N2CCN(C(=O)c3ccc(C(F)(F)F)nc3Nc3cc(Cl)ccc3C)CC2)cc1 4.45 µM

###

system: OVCAR-5 ovarian; experiment: NCI tumour cell line growth inhibition, 48 h
Listing of recorded TGI by entry.

1. CC(C)(CN1CCCCC1)C(=O)/C=C/c1ccc(Cl)c(Cl)c1 :: 3.08 µM

Determine from records and report TGI for COc1ccc(Nc2nc3c(N)cc(C(F)(F)F)cc3nc2-c2ccccc2)cc1OC > 100 µM

Determine from records and report TGI for CC(=O)N(O)CCCCCNC(=O)CCC(=O)N(O)CCCCCNC(=O)CCC(=O)N(O)CCCCCN 84 µM

Determine from records and report TGI for CCOP1(=O)C=CC(Cl)=C(C)C1 (stereo not given) 50.2 µM

###

Listing of recorded GI50 by entry.
system: MALME-3M melanoma; test: NCI tumour cell line growth inhibition, 48 h

Look up and report measured GI50 (MALME-3M melanoma) for the following compound: CC(C)C[C@H](NC(=O)Cn1ccc(Nc2ccccc2)cc1=O)B(O)O 2080 nM

###

tested on: MALME-3M melanoma; assay: NCI tumour cell line growth inhibition, 48 h
readoutKind: GI50

Use these answered entries as a reference point.
1) O=C(N/N=C(\CN1CCN(c2cc3[nH]cc(C(=O)O)c(=O)c3cc2F)CC1)c1ccc(Cl)cc1)c1ccncc1 :: 18.6 µM
2) [Cl-].[Nd+3].[O-]/N=C(\c1ccccc1)c1ccccn1.[O-]/N=C(\c1ccccc1)c1ccccn1.[O-]/N=C(\c1ccccc1)c1ccccn1 :: 30 µM
3) O=[N+]([O-])c1ccc2c(c1)C(=NO)c1cc([N+](=O)[O-])ccc1-2 :: 11.7 µM
4) CCOC(=O)c1nnn(-c2no[n+]([O-])c2-c2ccc(OC)cc2)c1COc1cccc2cccnc12 :: 2.44 µM
5) CCCCCCCC(=O)SCC/C=C/[C@@H]1CC(=O)NCc2cccc(n2)CN(Cc2ccc3ccccc3c2)CC(=O)N[C@@H](C(C)C)C(=O)O1 :: 23.8 µM

Look up and report measured GI50 (MALME-3M melanoma) for the following compound: C=C1C(=O)O[C@H]2[C@H]1CC/C(COC(=O)CCSSCCC(=O)OC/C1=C/CC[C@@]3(C)O[C@H]3[C@H]3OC(=O)C(=C)[C@@H]3CC1)=C\CC[C@@]1(C)O[C@@H]21 1.08 µM

Look up and report measured GI50 (MALME-3M melanoma) for the following compound: CCCN(CCC)c1ccc(CO)c(Cl)c1 29.1 µM

Look up and report measured GI50 (MALME-3M melanoma) for the following compound: COc1ccc(N2CCN(C(=O)c3ccc(C(F)(F)F)nc3Nc3cc(Cl)ccc3C)CC2)cc1 10.6 µM
